# Test system: CEM (human lymphoblastoid) cells
# Assay remarks: Cellular toxicity assay, CEM cells
# Format: cell-based
Measure: Toxicities (μM) CEM (µM)
Unit µM implied. Number only.

Which measured Toxicities (μM) CEM value corresponds to `COC(=O)N[C@H](C(=O)N1C[C@H](n2ccnn2)C[C@H]1c1ncc(-c2ccc(-c3ccc(-c4cnc([C@@H]5C[C@@H](n6cc([Si](C)(C)C)nn6)CN5C(=O)[C@@H](NC(=O)OC)C(C)C)[nH]4)cc3)cc2)[nH]1)C(C)C` ?
16.2

Which measured Toxicities (μM) CEM value corresponds to `COC(=O)N[C@H](C(=O)N1C[C@@H](n2cc(COC(C)=O)nn2)C[C@H]1c1ncc(-c2ccc(-c3ccc(-c4cnc([C@@H]5C[C@H](n6cc(COC(C)=O)nn6)CN5C(=O)[C@@H](NC(=O)OC)C(C)C)[nH]4)cc3)cc2)[nH]1)C(C)C` ?
13.5

Which measured Toxicities (μM) CEM value corresponds to `COC(=O)N[C@H](C(=O)N1C[C@@H](SC)C[C@H]1c1ncc(-c2ccc(-c3ccc(-c4cnc([C@@H]5C[C@H](SC)CN5C(=O)[C@@H](NC(=O)OC)C(C)C)[nH]4)cc3)cc2)[nH]1)C(C)C` ?
13.3

Which measured Toxicities (μM) CEM value corresponds to `COC(=O)N[C@H](C(=O)N1C[C@H](n2cc([Si](C)(C)C)nn2)C[C@H]1c1ncc(-c2ccc(-c3ccc(-c4cnc([C@@H]5C[C@@H](n6cc([Si](C)(C)C)nn6)CN5C(=O)[C@@H](NC(=O)OC)C(C)C)[nH]4)cc3)cc2)[nH]1)C(C)C` ?
25.2

Which measured Toxicities (μM) CEM value corresponds to `COC(=O)N[C@H](C(=O)N1C[C@@H](n2cc(C(=O)OC)nn2)C[C@H]1c1ncc(-c2ccc(-c3ccc(-c4cnc([C@@H]5C[C@H](n6cc(C(=O)OC)nn6)CN5C(=O)[C@@H](NC(=O)OC)C(C)C)[nH]4)cc3)cc2)[nH]1)C(C)C` ?
13.5
